biological target: PI3Kγ (p101/p110γ protein) (Homo sapiens, UniProt P48736); construct: HA; assay: PI3Kγ In Vitro Kinase Assay; conditions: purified recombinant p101/p110γ with G protein β1/γ2 subunits; 20 μM ATP, 25 μM PIP2; 20 minutes at room temperature
Sequence (P48736 whole entry, species assumed): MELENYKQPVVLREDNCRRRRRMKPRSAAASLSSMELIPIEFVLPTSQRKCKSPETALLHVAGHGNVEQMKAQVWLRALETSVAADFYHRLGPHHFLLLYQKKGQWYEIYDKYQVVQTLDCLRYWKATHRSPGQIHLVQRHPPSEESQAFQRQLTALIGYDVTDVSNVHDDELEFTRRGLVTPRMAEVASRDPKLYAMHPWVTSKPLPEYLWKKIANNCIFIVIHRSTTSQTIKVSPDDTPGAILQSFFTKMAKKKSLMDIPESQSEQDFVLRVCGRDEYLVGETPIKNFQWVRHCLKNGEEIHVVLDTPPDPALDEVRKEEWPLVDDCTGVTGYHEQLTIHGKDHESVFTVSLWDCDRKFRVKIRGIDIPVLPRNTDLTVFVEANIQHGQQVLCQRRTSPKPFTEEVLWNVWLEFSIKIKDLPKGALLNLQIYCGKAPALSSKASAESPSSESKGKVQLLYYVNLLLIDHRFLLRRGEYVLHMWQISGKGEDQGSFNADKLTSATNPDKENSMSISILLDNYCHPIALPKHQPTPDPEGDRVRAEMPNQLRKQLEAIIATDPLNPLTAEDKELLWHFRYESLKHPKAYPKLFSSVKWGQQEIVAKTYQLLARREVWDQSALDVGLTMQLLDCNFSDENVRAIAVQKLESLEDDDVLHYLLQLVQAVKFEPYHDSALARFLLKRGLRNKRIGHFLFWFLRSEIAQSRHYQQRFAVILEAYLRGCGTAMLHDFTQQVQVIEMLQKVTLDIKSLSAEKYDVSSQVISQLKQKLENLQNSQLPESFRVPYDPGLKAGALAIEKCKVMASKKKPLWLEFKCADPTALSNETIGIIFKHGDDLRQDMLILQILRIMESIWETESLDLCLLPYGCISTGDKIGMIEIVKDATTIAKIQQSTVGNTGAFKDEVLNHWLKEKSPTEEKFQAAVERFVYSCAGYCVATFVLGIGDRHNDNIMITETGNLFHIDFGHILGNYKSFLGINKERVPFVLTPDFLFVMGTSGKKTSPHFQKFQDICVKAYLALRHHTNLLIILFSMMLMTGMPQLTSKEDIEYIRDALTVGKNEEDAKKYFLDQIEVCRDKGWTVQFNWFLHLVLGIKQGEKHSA
Sequence (Q8WYR1 whole entry partner, species assumed): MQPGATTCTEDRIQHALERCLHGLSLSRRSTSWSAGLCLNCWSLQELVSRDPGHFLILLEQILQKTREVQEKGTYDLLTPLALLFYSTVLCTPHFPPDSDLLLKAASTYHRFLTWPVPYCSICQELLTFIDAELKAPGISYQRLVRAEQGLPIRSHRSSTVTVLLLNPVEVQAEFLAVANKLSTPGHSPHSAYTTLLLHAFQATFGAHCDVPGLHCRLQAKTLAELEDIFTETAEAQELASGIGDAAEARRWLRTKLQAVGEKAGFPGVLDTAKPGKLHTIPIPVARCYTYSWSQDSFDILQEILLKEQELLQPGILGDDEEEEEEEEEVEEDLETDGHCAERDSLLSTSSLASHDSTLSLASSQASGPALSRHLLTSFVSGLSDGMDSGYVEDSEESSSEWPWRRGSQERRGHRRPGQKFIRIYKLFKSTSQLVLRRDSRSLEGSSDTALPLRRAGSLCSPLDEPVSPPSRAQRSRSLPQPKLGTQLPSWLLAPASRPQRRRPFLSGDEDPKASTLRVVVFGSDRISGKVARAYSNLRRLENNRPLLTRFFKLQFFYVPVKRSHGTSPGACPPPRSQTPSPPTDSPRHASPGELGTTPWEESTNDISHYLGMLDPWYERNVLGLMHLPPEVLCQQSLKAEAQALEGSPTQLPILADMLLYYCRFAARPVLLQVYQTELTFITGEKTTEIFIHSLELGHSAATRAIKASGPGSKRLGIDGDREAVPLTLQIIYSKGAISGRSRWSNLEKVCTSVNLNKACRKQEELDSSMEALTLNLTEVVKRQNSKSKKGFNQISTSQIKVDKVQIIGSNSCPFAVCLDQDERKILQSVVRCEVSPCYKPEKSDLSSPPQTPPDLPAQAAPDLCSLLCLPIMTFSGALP
pIC50: −log10 of the molar value.
measured_attribute: pIC50

O=C1NC(=S)SC1=Cc1ccc2c(c1)N(CCc1cc(C(F)(F)F)cc(C(F)(F)F)c1)C(=O)CO2 [Example 113]
7.85

(P) O=C1NC(=S)SC1=Cc1ccc2c(c1)N(Cc1ccccc1CO)C(=O)CO2 [Example 24]
(Q) CC(C)(O)c1cccc(CN2C(=O)COc3ccc(/C=C4\SC(=S)NC4=O)cc32)c1 [Example 282]
Which entry shows the lesser value of pIC50 here, P or Q ? Write down the label attached to your selection.
Q

====

molecular target: PI3Kγ (p101/p110γ protein) (Homo sapiens, UniProt P48736); construct: HA; assay: PI3Kγ In Vitro Kinase Assay; conditions: purified recombinant p101/p110γ with G protein β1/γ2 subunits; 20 μM ATP, 25 μM PIP2; 20 minutes at room temperature
pIC50: −log10 of the molar value.
measured_attribute: pIC50

For orientation, consider the following solved cases.
CC(=O)Nc1ccc(CN2C(=O)COc3ccc(C=C4SC(=S)NC4=O)cc32)cc1
7.60
CC(C)(C)c1cc(CN2C(=O)COc3ccc(C=C4SC(=S)NC4=O)cc32)cc(C(=O)NCC(=O)O)c1
7.59
O=C1NC(=S)SC1=Cc1ccc2c(c1)N(Cc1ccoc1)C(=O)CO2
7.89

(I) CN1CCN(C(=O)c2cc(CN3C(=O)COc4ccc(/C=C5\SC(=S)NC5=O)cc43)cc(C(C)(C)C)c2)CC1
(II) O=C1NC(=S)SC1=Cc1ccc2c(c1)N(Cc1ccc3nccnc3c1)C(=O)CO2
(III) O=C1NC(=S)SC1=Cc1ccc2c(c1)N(Cc1ccc(-c3ccccc3)cc1)C(=O)CO2
(IV) CN1CCN(C(=O)c2ccc(CN3C(=O)COc4ccc(/C=C5\SC(=S)NC5=O)cc43)cc2)CC1
(V) O=C1NC(=O)C(=Cc2ccc3c(c2)N(Cc2ccc(Cl)c(Cl)c2)C(=O)CO3)S1
# ascending order, key=pIC50 I would appreciate it if you listed the labels in the requested order.
III, II, I, IV, V
(III: 7.21, II: 7.44, I: 7.80, IV: 8.10, V: 8.52)

====

biological target: PI3Kγ (p101/p110γ protein) (Homo sapiens, UniProt P48736); construct: HA; experiment: PI3Kγ In Vitro Kinase Assay; details: purified recombinant p101/p110γ with G protein β1/γ2 subunits; 20 μM ATP, 25 μM PIP2; 20 minutes at room temperature
measured_attribute: IC50 (nM)

Past entries and their recorded results:
C[C@@H]1Oc2ccc(C=C3SC(=S)NC3=O)cc2N(CCc2ccc(Cl)c(Cl)c2)C1=O
330
Cc1cc(C)cc(CN2C(=O)COc3ccc(C=C4SC(=S)NC4=O)cc32)c1 [Example 181]
10
CN1CCN(Cc2cc(CN3C(=O)COc4ccc(C=C5SC(=S)NC5=O)cc43)cc(C(C)(C)C)c2)CC1
6

(1) CC(C)(C)c1cc(CN2C(=O)COc3ccc(C=C4SC(=O)NC4=O)cc32)cc(C(C)(C)C)c1O
(2) O=C1NC(=S)OC1=Cc1ccc2c(c1)N(Cc1ccc(Cl)c(Cl)c1)C(=O)CS2
(3) CN(C)S(=O)(=O)c1cccc(CN2C(=O)COc3ccc(C=C4SC(=S)NC4=O)cc32)c1
(4) CC(C)(O)c1ccc(CN2C(=O)COc3c(F)cc(C=C4SC(=S)NC4=O)cc32)cc1
(5) Cc1cc(C=C2SC(=O)NC2=O)cc2c1OCC(=O)N2Cc1cc(C(C)(C)C)nc(C(C)(C)C)c1
# sort list by recorded IC50, greatest to least # the answer lists labels in the order requested
5, 3, 2, 1, 4
(5: 255 nM, 3: 19 nM, 2: 9 nM, 1: 6 nM, 4: 3 nM)

====

target: PI3Kγ (p101/p110γ protein) (Homo sapiens, UniProt P48736); construct: HA; test: PI3Kγ In Vitro Kinase Assay; conditions: purified recombinant p101/p110γ with G protein β1/γ2 subunits; 20 μM ATP, 25 μM PIP2; 20 minutes at room temperature
pIC50: −log10 of the molar value.
measured_attribute: pIC50

CC(C)Oc1cc(CN2C(=O)COc3ccc(C=C4SC(=S)NC4=O)cc32)cc(OC(C)C)c1 [Example 94]
7.54

(A) CC(C)(C)c1cc(CN2C(=O)COc3ccc(C=C4SC(=S)NC4=O)cc32)cc(C(=O)N2CCOCC2)c1 [Example 275]
(B) CN1CC(=O)N(Cc2ccccc2)c2cc(C=C3SC(=S)NC3=O)ccc21 [Example 197]
(C) O=C1NC(=S)OC1=Cc1ccc2c(c1)N(Cc1ccc(Cl)c(Cl)c1)C(=O)CO2 [Example 191]
(D) Cc1cc(C)c(C)c(CN2C(=O)COc3ccc(C=C4SC(=S)NC4=O)cc32)c1C [Example 96]
(E) O=C1NC(=S)O/C1=C\c1ccc2c(c1)N(Cc1cc(C(F)(F)F)cc(C(F)(F)F)c1)C(=O)CO2 [Example 271]
Could you please order the items by pIC50, going from the lowest number to the highest? Present the labels in the sequence the task asks for.
D, B, E, A, C
(D: 6.17, B: 6.41, E: 7.00, A: 7.60, C: 8.15)

(a) O=C1NC(=S)SC1=Cc1cc(F)c2c(c1)N(Cc1ccc(Cl)c(C(F)(F)F)c1)C(=O)CO2 [Example 233]
(b) CC(C)(C)c1cc(CN2C(=O)COc3c(F)cc(C=C4SC(=S)NC4=O)cc32)cc(C(C)(C)C)n1 [Example 220]
Of a and b , which one carries the higher reported pIC50? Indicate which entry you chose by stating its label.
a
(a: 7.46, b: 6.31)

(A) COc1ccc(CCCN2C(=O)COc3ccc(C=C4SC(=O)NC4=O)cc32)cc1 [Example 123]
(B) CC(C)c1cc(CN2C(=O)COc3ccc(C=C4SC(=S)NC4=O)cc32)cc(C(C)C)c1 [Example 210]
Of A and B , which one carries the higher reported pIC50? Record your answer as the label of the chosen record.
A

(1) CC(C)(C)c1ccc(CN2C(=O)COc3ccc(C=C4SC(=S)NC4=O)cc32)cc1 [Example 184]
(2) CC(C)(O)c1cc(CN2C(=O)COc3c(F)cc(C=C4SC(=S)NC4=O)cc32)ccc1F [Example 302]
(3) NC(=O)CN1C(=O)COc2ccc(C=C3SC(=S)NC3=O)cc21 [Example 141]
(4) COC(=O)CN1C(=O)COc2ccc(C=C3SC(=S)NC3=O)cc21 [Example 7]
With regard to pIC50, arrange the entries in ascending order, please. Order the labels as requested and give them as your answer.
3, 4, 2, 1
(3: 6.07, 4: 7.08, 2: 7.92, 1: 8.52)

(P) O=C(O)CN1C(=O)C(=Cc2cc(F)c3c(c2)N(Cc2ccc(F)c(Cl)c2)C(=O)CO3)SC1=S [Example 296]
(Q) O=C1NC(=S)SC1=Cc1ccc2c(c1)N(Cc1ccc(Cl)s1)C(=O)CO2 [Example 322]
Which has the higher pIC50, P or Q ? The response must carry the label of the picked entry.
Q
(Q: 8.52, P: 5.41)

====

target: PI3Kγ (p101/p110γ protein) (Homo sapiens, UniProt P48736); construct: HA; test: PI3Kγ In Vitro Kinase Assay; conditions: purified recombinant p101/p110γ with G protein β1/γ2 subunits; 20 μM ATP, 25 μM PIP2; 20 minutes at room temperature
measured_attribute: IC50 (nM)

Below, 4 compounds whose answers are already recorded.
O=C1NC(=S)SC1=Cc1ccc2c(c1)N(Cc1ccc(SC(F)(F)F)cc1)C(=O)CO2 [Example 168]
12
Cc1ccc(CCN2C(=O)COc3ccc(C=C4SC(=S)NC4=O)cc32)cc1 [Example 138]
10
Cc1cc(C)cc(C(C)N2C(=O)COc3ccc(C=C4SC(=S)NC4=O)cc32)c1 (stereo not drawn) [Example 218]
55
CCN(CC)Cc1ccc(CN2C(=O)COc3ccc(C=C4SC(=O)NC4=O)cc32)cc1 [Example 93]
16

(a) CCOC(=O)N1CCN(Cc2ccc(CN3C(=O)COc4ccc(C=C5SC(=O)NC5=O)cc43)cc2)CC1 [Example 240]
(b) O=C1NC(=S)S/C1=C\c1cc(F)c2c(c1)N(Cc1ccc(Cl)c(Cl)c1)C(=O)CO2 [Example 341]
Hi, I'm comparing a with b and wondering which one has the bigger number for IC50. Any idea? Your answer should be the label of the entry you select.
a

(1) CN(C)c1ccc(CCN2C(=O)COc3ccc(C=C4SC(=S)NC4=O)cc32)cc1 [Example 132]
(2) O=C1NC(=S)SC1=Cc1ccc2c(c1)N(Cc1ccc(Cl)c(Cl)c1)C(=O)CO2 [Example 178]
(3) Cc1cc(CN2C(=O)COc3ccc(C=C4SC(=S)NC4=O)cc32)cc(-c2cnccn2)c1 [Example 121]
(4) O=C1NC(=S)SC1=Cc1ccc2c(c1)N(CC1CCCCC1)C(=O)CO2 [Example 143]
Put the compounds in ascending order of IC50. Please, when replying, give the labels in the order that was requested.
2, 1, 4, 3

(P) O=C1NC(=S)SC1=Cc1ccc2c(c1)N(Cc1ccc(OCc3ccccc3)cc1)C(=O)CO2 [Example 163]
(Q) O=C1NC(=S)SC1=Cc1ccc2c(c1)N(Cc1cc(-c3ccccc3)cc(-c3ccccc3)c1)C(=O)CO2 [Example 43]
API: POST /compare with P and Q ; response names the item with higher IC50. Answer format: the label of the selected item.
Q

(A) O=C1COc2ccc(C=C3SC(=S)NC3=O)cc2N1 [Example 1]
(B) COc1cc(C=C2SC(=S)NC2=O)cc2c1OCC(=O)N2 [Example 6]
(C) O=C1NC(=O)C(=Cc2cc(F)c3c(c2)N(Cc2ccc(F)cc2)C(=O)CO3)S1 [Example 298]
(D) Cc1ccc(CN2C(=O)COc3ccc(C=C4SC(=S)NC4=O)cc32)cc1C [Example 97]
(E) O=C1NC(=S)SC1=Cc1ccc2c(c1)N(CC(=O)N1CCNCC1)C(=O)CO2 [Example 215]
Arrange these 5 compounds in increasing order of IC50. Answer by listing the labels in the order asked for.
C, D, A, B, E

(I) O=C1NC(=O)/C(=C/c2ccc3c(c2)N(Cc2cc(C(F)(F)F)cc(C(F)(F)F)c2)C(=O)CO3)S1 [Example 272]
(II) O=C1NC(=S)SC1=Cc1ccc2c(c1)N(Cc1ccccc1-c1ccccc1)C(=O)CO2 [Example 159]
Between item I and item II , which reported IC50 is smaller? Choose, then provide that item's label.
II

(1) CC(CN1C(=O)COc2ccc(C=C3SC(=S)NC3=O)cc21)c1ccccc1 (stereo not drawn) [Example 173]
(2) O=C1NC(=S)SC1=Cc1ccc2c(c1)N(Cc1ccccc1)C(=O)CO2 [Example 4]
(3) CC(C)(C)c1cc(C#N)cc(CN2C(=O)COc3ccc(C=C4SC(=S)NC4=O)cc32)c1 [Example 55]
Would you mind ranking these compounds by ascending IC50? Output the labels ranked as instructed.
3, 2, 1

(A) O=C1NC(=S)SC1=Cc1ccc2c(c1)N(Cc1ccc(Cl)c(Cl)c1)C(=O)CS2 [Example 198]
(B) O=C1NC(=S)S/C1=C\c1ccc2c(c1)N(Cc1ccc(I)cc1)C(=O)CO2 [Example 287]
(C) O=C1COc2c(F)cc(C=C3SC(=S)NC3=O)cc2N1 [Example 53]
(D) CC1Oc2ccc(C=C3SC(=S)NC3=O)cc2N(Cc2ccc(CN3CCN(C)CC3)cc2)C1=O (stereo not drawn) [Example 223]
(E) O=C1NC(=S)SC1=Cc1ccc2c(c1)N(Cc1cnc3ccccc3c1)C(=O)CO2 [Example 323]
Could you please sort these 5 entries by IC50 from high to low? API: response body holds the labels in the requested order.
D, C, E, B, A

(I) Cc1cc(CN2C(=O)COc3c(F)cc(C=C4SC(=S)NC4=O)cc32)nn1C(C)(C)C [Example 325]
(II) O=C1NC(=S)SC1=Cc1cc(F)c2c(c1)N(Cc1ccc3ncccc3c1)C(=O)CO2 [Example 328]
Which record shows the lower IC50: the first, I , or the second, II ? Refer to your chosen entry by its label in the reply.
II
(II: 6 nM, I: 18 nM)
